The values you see were collected from the supplement of paper PMC12764529.

folding stability dG unfold for assorted sequences
- ASSAY: folding stability dG unfold from trypsin proteolysis; higher = more stable
All answers are understood in kcal/mol, so give the number only.

Q. Please look at this sequence and report its folding stability dG unfold: SAGGSAGGSAMTLEEKALESEELKKKIEEAPPSTKLITFELPGGEKITFTKNPDGSVVLSPSAGGSAGGSAG [r3_124_JUSTAS]
A. 0.941

Q. Please look at this sequence and report its folding stability dG unfold: SAGGSAMEEEKPPKVKVRITVELEDGEKLEIEFETKEEAEEAAEALAKELEEKTGLKIKKIEVEEVSAGGSA [r15_140_TrROS_Hall]
A. 2.77

Q. Please look at this sequence and report its folding stability dG unfold: SAGMVTLRVKLKDGRELEIQLASEEEIESLPPGAKVIPIPAESEEEALEAAARLLAEEEGLEIEEVEKVSAG [r5_119_TrROS_Hall]
A. 0.671

Q. Please look at this sequence and report its folding stability dG unfold: SPIKLPIVFPNLPKEEAKEAVEALAKELEEKYGFKIEVEVEELRAPDGKLVAVVAIATIEKFGEEDKLLFSA [r9_21_TrMRF]
A. 1.3
